Entries annotated with measured IC50
Biological target: SLK (Homo sapiens)
Sequence (Q9H2G2 whole entry): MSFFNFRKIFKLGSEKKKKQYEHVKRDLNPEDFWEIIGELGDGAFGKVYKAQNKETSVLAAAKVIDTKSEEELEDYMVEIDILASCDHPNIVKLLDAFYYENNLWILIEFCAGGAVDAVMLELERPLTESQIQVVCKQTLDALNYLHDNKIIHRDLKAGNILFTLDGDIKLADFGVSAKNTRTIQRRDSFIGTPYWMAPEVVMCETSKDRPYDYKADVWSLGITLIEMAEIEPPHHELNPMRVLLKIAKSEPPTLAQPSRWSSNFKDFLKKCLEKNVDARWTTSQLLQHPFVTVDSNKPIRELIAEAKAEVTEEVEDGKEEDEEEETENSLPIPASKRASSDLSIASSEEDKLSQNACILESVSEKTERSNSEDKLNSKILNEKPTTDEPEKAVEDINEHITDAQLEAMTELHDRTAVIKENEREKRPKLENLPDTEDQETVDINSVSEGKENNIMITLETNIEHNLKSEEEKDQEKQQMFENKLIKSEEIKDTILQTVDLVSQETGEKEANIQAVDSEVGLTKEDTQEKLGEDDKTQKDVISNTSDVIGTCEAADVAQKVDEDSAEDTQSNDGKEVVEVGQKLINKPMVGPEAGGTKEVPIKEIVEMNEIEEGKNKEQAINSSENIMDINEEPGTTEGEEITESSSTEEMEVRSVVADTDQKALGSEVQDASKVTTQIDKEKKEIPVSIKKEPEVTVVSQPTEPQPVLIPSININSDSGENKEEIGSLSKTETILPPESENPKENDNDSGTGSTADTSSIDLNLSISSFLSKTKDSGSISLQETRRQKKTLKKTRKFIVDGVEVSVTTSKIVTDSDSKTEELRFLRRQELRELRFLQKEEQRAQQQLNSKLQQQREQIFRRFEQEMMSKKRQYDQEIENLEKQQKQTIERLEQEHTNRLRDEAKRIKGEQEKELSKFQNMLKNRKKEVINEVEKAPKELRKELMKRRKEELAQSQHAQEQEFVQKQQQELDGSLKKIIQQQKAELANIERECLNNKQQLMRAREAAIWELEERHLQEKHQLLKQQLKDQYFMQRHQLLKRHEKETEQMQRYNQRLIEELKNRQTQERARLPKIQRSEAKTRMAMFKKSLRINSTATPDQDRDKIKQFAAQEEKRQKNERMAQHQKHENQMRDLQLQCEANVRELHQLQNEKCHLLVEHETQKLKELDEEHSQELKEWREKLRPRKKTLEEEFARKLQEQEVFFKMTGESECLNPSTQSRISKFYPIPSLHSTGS

INSERT INTO assay_data (chem_smiles, study_target, result) VALUES
  ('COc1cc(C2CCN(C)CC2)ccc1Nc1ncc2c(n1)n1c(cc3ccccc31)c(=O)n2C', 'SLK (Homo sapiens)', '1000 to 5000 nM');

Kindly consider the entry below.
q: What value of IC50 has been recorded for this entry: Cn1c(=O)c2cc3ccccc3n2c2nc(Nc3ccc(N4CCC(N5CCOCC5)CC4)cc3)ncc21
a: 50 to 250 nM

###

These compounds were tested on NEK2 (Homo sapiens, UniProt P51955); IC50 is the recorded read-out.
Sequence (P51955 whole entry, species assumed): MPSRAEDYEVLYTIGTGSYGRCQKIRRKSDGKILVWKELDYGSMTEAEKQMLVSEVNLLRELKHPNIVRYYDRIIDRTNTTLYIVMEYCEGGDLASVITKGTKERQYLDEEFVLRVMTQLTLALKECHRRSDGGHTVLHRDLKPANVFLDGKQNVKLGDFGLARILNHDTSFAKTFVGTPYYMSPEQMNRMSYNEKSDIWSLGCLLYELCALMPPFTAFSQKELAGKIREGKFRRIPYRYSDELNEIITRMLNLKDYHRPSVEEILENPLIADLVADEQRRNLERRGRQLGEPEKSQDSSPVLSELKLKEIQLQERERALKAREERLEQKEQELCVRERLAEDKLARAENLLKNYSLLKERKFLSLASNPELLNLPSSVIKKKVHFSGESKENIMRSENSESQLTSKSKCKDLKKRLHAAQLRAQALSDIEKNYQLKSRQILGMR

Consider the following illustrative entries.
INSERT INTO results (chem_smiles, result) VALUES
  ('CN1CCN(c2ccc(Nc3ncc4c(n3)n3c(cc5ccccc53)c(=O)n4C)cc2C(F)(F)F)CC1', '50 to 250 nM'),
  ('CCN1CCN(c2ccc(Nc3ncc4c(n3)n3c(cc5ccccc53)c(=O)n4C)cc2)CC1', '≤ 50 nM'),
  ('CN1CCN(C2CCN(c3ccc(Nc4ncc5c(n4)n4c(cc6ccccc64)c(=O)n5C)cn3)CC2)CC1', '≤ 50 nM');

Attention now shifts to the item below.
q: So what's the measured IC50 for this one? Cn1c(=O)c2cc3ccccc3n2c2nc(Nc3cc(N4CCOCC4)cc(N4CCOCC4)c3)ncc21
a: ≤ 50 nM

###

Target chain: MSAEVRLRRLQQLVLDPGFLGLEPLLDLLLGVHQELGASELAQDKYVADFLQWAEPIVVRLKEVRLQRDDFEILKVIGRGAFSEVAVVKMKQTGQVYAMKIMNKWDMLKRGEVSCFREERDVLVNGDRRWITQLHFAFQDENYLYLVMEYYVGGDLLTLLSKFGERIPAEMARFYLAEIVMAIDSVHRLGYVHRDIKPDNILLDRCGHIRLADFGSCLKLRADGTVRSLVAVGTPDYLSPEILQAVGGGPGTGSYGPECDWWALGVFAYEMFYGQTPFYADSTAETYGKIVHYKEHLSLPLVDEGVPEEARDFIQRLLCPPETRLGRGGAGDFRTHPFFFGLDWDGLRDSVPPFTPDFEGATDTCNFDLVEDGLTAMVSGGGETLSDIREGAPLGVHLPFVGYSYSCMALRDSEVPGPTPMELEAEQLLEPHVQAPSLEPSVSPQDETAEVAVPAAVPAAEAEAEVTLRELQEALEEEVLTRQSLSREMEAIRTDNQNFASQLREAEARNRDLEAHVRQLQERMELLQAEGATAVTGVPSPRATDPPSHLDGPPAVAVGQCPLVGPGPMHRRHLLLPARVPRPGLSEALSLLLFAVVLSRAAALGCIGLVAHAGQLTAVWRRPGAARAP
measurement_type: IC50

q: What measured IC50 goes with CN1CCN(c2ccc(Nc3ncc4c(n3)n3c(cc5ccccc53)c(=O)n4C)c(C(F)(F)F)c2)CC1 ?
a: ≥ 5 µM

q: Another compound to look at: Cn1c(=O)c2cc3ccccc3n2c2nc(Nc3cnn(CC(F)F)c3)ncc21
a: 1 to 5 µM

q: Also, CN1CCN(c2ccc(Nc3ncc4c(n3)n3c(cc5ccccc53)c(=O)n4C)cc2C(F)(F)F)CC1 please.
a: ≥ 5 µM

q: Would you kindly repeat that for CC(C)Oc1cc(N2CCC(O)CC2)ccc1Nc1ncc2c(n1)n1c(cc3ccccc31)c(=O)n2C ?
a: ≥ 5 µM
